System: clinical strains of C. glabrata
ASSAY: MIC, clinical yeast strains, C. glabrata
Assay type: cell-based, Candida glabrata
Parameters: unit: μg/ml
CONDITION_PARAMETERS: C. glabrata clinical yeast strain 2
Where a SMILES comes first, the peptide text is derived from it. [ ]: non-standard residue; d: D form.
MEASURED_PROPERTY: Minimum inhibitory concentration

A selection of reference data follows.
CC(C)C[C@@H](NC(=O)[C@H](N)CCCCN)C(=O)N[C@H](CCCCN)C(=O)N[C@H](Cc1c[nH]c2ccccc12)C(=O)N[C@H](Cc1ccccc1)C(=O)N[C@H](Cc1c[nH]c2ccccc12)C(=O)N[C@H](CC(C)C)C(=O)N[C@H](Cc1ccccc1)C(=O)N[C@H](CCCCN)C(=O)N[C@H](CCCCN)C(=O)N[C@H](CCCNC(=N)N)C(=O)O [Chain311D] (H-[dK][dL][dK][dW][dF][dW][dL][dF][dK][dK][dR]-OH) = 16
CC[C@@H](C)[C@@H](NC(=O)[C@@H](Cc1c[nH]c2ccccc12)NC(=O)[C@H](N)CCCCN)C(=O)N[C@@H](C(=O)N[C@H](Cc1c[nH]c2ccccc12)C(=O)N[C@H](CCCNC(=N)N)C(=O)N[C@H](Cc1c[nH]c2ccccc12)C(=O)N[C@H](CCCNC(=N)N)C(=O)N[C@H](Cc1ccccc1)C(=O)N[C@H](CCCCN)C(=O)N[C@H](CCCNC(=N)N)C(=O)O)C(C)C [Chain201D] (H-[dK][dW][dI][dV][dW][dR][dW][dR][dF][dK][dR]-OH) = 8
CC[C@@H](C)[C@@H](NC(=O)[C@@H](CC(C)C)NC(=O)[C@@H](CCCNC(=N)N)NC(=O)[C@H](N)CCCNC(=N)N)C(=O)N[C@H](Cc1c[nH]c2ccccc12)C(=O)N[C@H](CCCNC(=N)N)C(=O)N[C@H](CCCNC(=N)N)C(=O)N[C@H](Cc1ccccc1)C(=O)N[C@H](CCCCN)C(=O)N[C@H](Cc1c[nH]c2ccccc12)C(=O)N[C@H](CC(C)C)C(=O)N[C@H](CCCNC(=N)N)C(=O)O [Chain204D] (H-[dR][dR][dL][dI][dW][dR][dR][dF][dK][dW][dL][dR]-OH) = 8
CC(C)C[C@@H](NC(=O)[C@H](N)CCCNC(=N)N)C(=O)N[C@H](CCCCN)C(=O)N[C@H](Cc1c[nH]c2ccccc12)C(=O)N[C@H](Cc1ccccc1)C(=O)N[C@H](Cc1c[nH]c2ccccc12)C(=O)N[C@H](CC(C)C)C(=O)N[C@H](Cc1ccccc1)C(=O)N[C@H](CCCNC(=N)N)C(=O)N[C@H](CCCCN)C(=O)N[C@H](CCCNC(=N)N)C(=O)O [Chain307D] (H-[dR][dL][dK][dW][dF][dW][dL][dF][dR][dK][dR]-OH) = 16
CC(C)C[C@@H](NC(=O)[C@H](N)CCCNC(=N)N)C(=O)N[C@H](CCCCN)C(=O)N[C@H](Cc1c[nH]c2ccccc12)C(=O)N[C@H](Cc1ccccc1)C(=O)N[C@H](CC(C)C)C(=O)N[C@H](CC(C)C)C(=O)N[C@H](Cc1ccccc1)C(=O)N[C@H](CCCNC(=N)N)C(=O)N[C@H](CCCCN)C(=O)N[C@H](CCCNC(=N)N)C(=O)O [Chain308D] (H-[dR][dL][dK][dW][dF][dL][dL][dF][dR][dK][dR]-OH) = 16
CC[C@@H](C)[C@@H](N)C(=O)N[C@H](Cc1c[nH]c2ccccc12)C(=O)N[C@H](CCCCN)C(=O)N[C@H](CCCNC(=N)N)C(=O)N[C@H](Cc1ccccc1)C(=O)N[C@H](CCCNC(=N)N)C(=O)N[C@H](CC(C)C)C(=O)N[C@H](Cc1ccccc1)C(=O)N[C@H](CCCCN)C(=O)N[C@H](CCCCN)C(=O)N[C@H](Cc1c[nH]c2ccccc12)C(=O)O [Chain304D] (H-[dI][dW][dK][dR][dF][dR][dL][dF][dK][dK][dW]-OH) = 16
CC(C)C[C@@H](NC(=O)[C@H](N)CCCNC(=N)N)C(=O)N[C@H](CCCCN)C(=O)N[C@H](CCCNC(=N)N)C(=O)N[C@H](Cc1c[nH]c2ccccc12)C(=O)N[C@H](CCCNC(=N)N)C(=O)N[C@H](CC(C)C)C(=O)N[C@H](Cc1ccccc1)C(=O)N[C@H](CCCNC(=N)N)C(=O)N[C@H](CCCCN)C(=O)N[C@H](CCCNC(=N)N)C(=O)O [Chain306D] (H-[dR][dL][dK][dR][dW][dR][dL][dF][dR][dK][dR]-OH) = 8
CC(C)C[C@@H](NC(=O)[C@@H](CCCCN)NC(=O)[C@@H](Cc1c[nH]c2ccccc12)NC(=O)[C@@H](CCCCN)NC(=O)[C@@H](C)NC(=O)[C@@H](Cc1c[nH]cn1)NC(=O)[C@@H](CC(C)C)NC(=O)[C@@H](CCCNC(=N)N)NC(=O)[C@@H](Cc1c[nH]c2ccccc12)NC(=O)[C@H](N)Cc1c[nH]c2ccccc12)C(=O)N[C@H](Cc1c[nH]c2ccccc12)C(=O)O [Chain109D] (H-[dW][dW][dR][dL][dH][dA][dK][dW][dK][dL][dW]-OH) = 128

Query block: Give recorded Minimum inhibitory concentration. CC(C)C[C@@H](NC(=O)[C@@H](Cc1c[nH]c2ccccc12)NC(=O)[C@@H](Cc1ccccc1)NC(=O)[C@@H](Cc1c[nH]c2ccccc12)NC(=O)[C@@H](CCCCN)NC(=O)[C@@H](CCCNC(=N)N)NC(=O)[C@H](N)Cc1c[nH]c2ccccc12)C(=O)N[C@H](Cc1ccccc1)C(=O)N[C@H](CCCCN)C(=O)N[C@H](CCCCN)C(=O)N[C@H](CCCNC(=N)N)C(=O)O [Chain309D] (H-[dW][dR][dK][dW][dF][dW][dL][dF][dK][dK][dR]-OH)
Result block: 64

Query block: Annotate the compound C[C@@H]1[C@H](O)[C@@H](C)/C=C/C=C/C=C/C=C/C=C/C=C/C=C/[C@H](O[C@@H]2O[C@H](C)[C@@H](O)[C@H](N)[C@@H]2O)C[C@@H]2O[C@](O)(C[C@@H](O)C[C@@H](O)[C@H](O)CC[C@@H](O)C[C@@H](O)CC(=O)O[C@H]1C)C[C@H](O)[C@H]2C(=O)O [Amphotericin B, reference compound] with its measured Minimum inhibitory concentration.
Result block: 4

Query block: Provide measured Minimum inhibitory concentration value, entry: CC(C)C[C@@H](NC(=O)[C@@H](CCCCN)NC(=O)[C@@H](CCCCN)NC(=O)[C@@H](Cc1ccccc1)NC(=O)[C@@H](CC(C)C)NC(=O)[C@@H](Cc1c[nH]c2ccccc12)NC(=O)[C@@H](CCCNC(=N)N)NC(=O)[C@@H](Cc1c[nH]c2ccccc12)NC(=O)[C@@H](CCCCN)NC(=O)[C@@H](CCCNC(=N)N)NC(=O)[C@H](N)CCCCN)C(=O)O [Chain310D] (H-[dK][dR][dK][dW][dR][dW][dL][dF][dK][dK][dL]-OH)
Result block: 16

====

Measured Minimum inhibitory concentration, listed per entry.
System: clinical strains of Escherichia coli
ASSAY: MIC, clinical strains of E. coli
Format: cell-based
Design: unit: μg/ml
CONDITION_PARAMETERS: Escherichia coli clinical strain 3; microdilution, Muller Hinton broth-cation adjusted, 0.02% BSA, 0.2% acetic acid
Where a SMILES comes first, the peptide text is derived from it. [ ]: non-standard residue; d: D form.
Please give only the number in your answer, with no unit.

Completed entries (count: 2):
CC(C)C[C@@H](NC(=O)[C@H](N)CCCCN)C(=O)N[C@H](CCCCN)C(=O)N[C@H](Cc1c[nH]c2ccccc12)C(=O)N[C@H](Cc1ccccc1)C(=O)N[C@H](Cc1c[nH]c2ccccc12)C(=O)N[C@H](CC(C)C)C(=O)N[C@H](Cc1ccccc1)C(=O)N[C@H](CCCCN)C(=O)N[C@H](CCCCN)C(=O)N[C@H](CCCNC(=N)N)C(=O)O [Chain311D] (H-[dK][dL][dK][dW][dF][dW][dL][dF][dK][dK][dR]-OH) = 1
CC(C)C[C@@H](NC(=O)[C@H](N)CCCNC(=N)N)C(=O)N[C@H](CCCCN)C(=O)N[C@H](CCCNC(=N)N)C(=O)N[C@H](Cc1c[nH]c2ccccc12)C(=O)N[C@H](CCCNC(=N)N)C(=O)N[C@H](CC(C)C)C(=O)N[C@H](Cc1ccccc1)C(=O)N[C@H](CCCNC(=N)N)C(=O)N[C@H](CCCCN)C(=O)N[C@H](CCCNC(=N)N)C(=O)O [Chain306D] (H-[dR][dL][dK][dR][dW][dR][dL][dF][dR][dK][dR]-OH) = 2

Query block: State Minimum inhibitory concentration (clinical strains of Escherichia coli) of CC(C)C[C@@H](NC(=O)[C@H](N)CCCNC(=N)N)C(=O)N[C@H](CCCCN)C(=O)N[C@H](Cc1c[nH]c2ccccc12)C(=O)N[C@H](Cc1ccccc1)C(=O)N[C@H](Cc1c[nH]c2ccccc12)C(=O)N[C@H](CC(C)C)C(=O)N[C@H](Cc1ccccc1)C(=O)N[C@H](CCCNC(=N)N)C(=O)N[C@H](CCCCN)C(=O)N[C@H](CCCNC(=N)N)C(=O)O [Chain307D] (H-[dR][dL][dK][dW][dF][dW][dL][dF][dR][dK][dR]-OH) .
Result block: 4
